Listed below: pIC50 values for each entry.
# TARGET_SYSTEM: human LXRα (Homo sapiens, UniProt Q13133)
# Sequence (Q13133 whole entry): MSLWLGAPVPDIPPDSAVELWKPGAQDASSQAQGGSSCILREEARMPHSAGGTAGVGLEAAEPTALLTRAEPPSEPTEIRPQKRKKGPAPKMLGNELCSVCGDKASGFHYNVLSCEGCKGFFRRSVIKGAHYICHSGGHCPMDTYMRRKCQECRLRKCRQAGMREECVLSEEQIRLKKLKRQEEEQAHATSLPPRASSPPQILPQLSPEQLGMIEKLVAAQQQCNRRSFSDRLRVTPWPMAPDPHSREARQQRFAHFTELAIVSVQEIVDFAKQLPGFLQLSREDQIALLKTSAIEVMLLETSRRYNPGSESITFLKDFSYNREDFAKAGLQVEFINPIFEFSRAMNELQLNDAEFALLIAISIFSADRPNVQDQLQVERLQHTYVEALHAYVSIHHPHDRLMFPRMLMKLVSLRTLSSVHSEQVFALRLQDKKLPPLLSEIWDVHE
pIC50: −log10 of the molar value.

Reference set (2 entries):
                                  structure  property_name  observed_value
0  Cc1nc2cccc(C(F)(F)F)c2nc1-c1ccc(-c2cncc(S(C)(=O)=O)c2)cc1          pIC50          < 6.00
1  COc1cccc2nc(-c3ccc(-c4cccc(S(C)(=O)=O)c4)cc3)c(C)nc12          pIC50          < 6.00

Now for the compound whose pIC50 we want.
Exam item: Form entry - test system: human LXRα (Homo sapiens, UniProt Q13133); read-out: pIC50; compound: Cc1nc2c(C(F)(F)F)cccc2nc1-c1ccc(Oc2cccc(S(C)(=O)=O)c2)cc1
Marked response: < 6.00

src = patent US20100120778A1
